The measured values listed here are drawn from ChEMBL document CHEMBL1255192.

- Tested on: HEK293
- assayName: Cytotoxicity against HEK293 cells
- Assay type: cell-based
- runParameters: Homo sapiens
valueKind: pEC50
pEC50 is defined as minus the log10 of a concentration measured in mol/L.

I'm curious: which pEC50 was measured for CN(C)CCSc1nncc(-c2cnnc(SCCN(C)C)n2)n1 tested on HEK293?
4.60

I'm curious: which pEC50 was measured for CSc1nncc(-c2cnnc(SC)n2)n1 tested on HEK293?
4.17

I'm curious: which pEC50 was measured for CCSc1nncc(-c2cnnc(SCC)n2)n1 tested on HEK293?
4.08

I'm curious: which pEC50 was measured for COc1nncc(-c2cnnc(OC)n2)n1 tested on HEK293?
4.44

I'm curious: which pEC50 was measured for CSc1nncc(-c2cnnc(OCCN(C)C)n2)n1 tested on HEK293?
4.62

I'm curious: which pEC50 was measured for CCN(CC)CCSc1nncc(-c2cnnc(SCCN(CC)CC)n2)n1 tested on HEK293?
4.80

I'm curious: which pEC50 was measured for CCN(CC)CCSc1nncc(-c2cnnc(SC)n2)n1 tested on HEK293?
5.05

I'm curious: which pEC50 was measured for COc1nncc(-c2cnnc(SC)n2)n1 tested on HEK293?
4.74
